Tested on: Anti-Fas-induced Jurkat cells
Assay: Anti-Fas-induced apoptosis of Jurkat cells in vitro (Caspase 3 substrate Ac-DEVD-AMC fluorescence)
Format: cell-based
Conditions: Homo sapiens; Jurkat Clone E6-1, Anti-Fas 50 ng/mL, 24 hours, Ac-DEVD-AMC 10 μM
The threshold is 40 nM. Values of EC50 beneath it are tagged yes; values meeting or exceeding it are tagged no.

# MOLECULE, ASSIGNED CATEGORY
data = [
    ("Cn1c(C(=O)N2CCC(C(=O)N[C@@H](CC(=O)O)C(=O)COc3c(F)c(F)cc(F)c3F)CC2)nc2ccccc21", "yes"),
    ("O=C(O)C[C@H](NC(=O)C1CCN(C(=O)c2nsc3ccccc23)CC1)C(=O)COc1c(F)c(F)cc(F)c1F", "yes"),
    ("O=C(O)C[C@H](NC(=O)C1CCN(C(=O)C(=O)Nc2ccc(Cl)cc2C(F)(F)F)CC1)C(=O)COc1c(F)c(F)cc(F)c1F", "no"),
    ("O=C(O)C[C@H](NC(=O)C1CCN(C(=O)C(=O)NCCC2CCCC2)CC1)C(=O)COc1c(F)c(F)cc(F)c1F", "no"),
    ("O=C(O)C[C@H](NC(=O)C1CCN(C(=O)c2ncccn2)CC1)C(=O)COc1c(F)c(F)cc(F)c1F", "yes"),
    ("O=C(O)C[C@H](NC(=O)C1CCN(C(=O)OCc2ccccc2)C1)C(=O)COc1c(F)c(F)cc(F)c1F (stereo partly drawn)", "yes"),
    ("CC(C)(C)c1cc(Cl)ccc1NC(=O)C(=O)N1CCC(C(=O)N[C@@H](CC(=O)O)C(=O)COc2c(F)c(F)cc(F)c2F)CC1", "no"),
    ("O=C(O)C[C@H](NC(=O)C1CCN(C(=O)c2ccno2)CC1)C(=O)COc1c(F)c(F)cc(F)c1F", "yes"),
    ("O=C(O)C[C@H](NC(=O)C1CCN(C(=O)OCc2ccc(Cl)cc2Cl)CC1)C(=O)COc1c(F)c(F)cc(F)c1F", "no"),
    ("Cc1c(F)cc(F)c(F)c1OCC(=O)[C@H](CC(=O)O)NC(=O)C1CCN(C(=O)c2noc3ccccc23)CC1", "yes"),
    ("O=C(O)C[C@H](NC(=O)[C@H]1COCCN(C(=O)c2noc3ccccc23)C1)C(=O)COc1c(F)c(F)cc(F)c1F", "yes"),
    ("O=C(O)C[C@H](NC(=O)[C@H]1CC[C@H](NC(=O)OCc2ccccc2)CC1)C(=O)COc1c(F)c(F)cc(F)c1F", "no"),
    ("CC(C)(C)c1ccccc1C(=O)N1CCC(C(=O)N[C@@H](CC(=O)O)C(=O)COc2c(F)c(F)cc(F)c2F)CC1", "no"),
    ("O=C(O)C[C@H](NC(=O)C1CCN(C(=O)C(=O)N2CCCC2)CC1)C(=O)COc1c(F)c(F)cc(F)c1F", "no"),
    ("O=C(O)C[C@H](NC(=O)[C@@H]1COCCN(C(=O)c2noc3ccccc23)C1)C(=O)COc1c(F)c(F)cc(F)c1F", "yes"),
    ("O=C(O)C[C@H](NC(=O)[C@@H]1CCCCN(C(=O)c2noc3ccccc23)C1)C(=O)COc1c(F)c(F)cc(F)c1F", "yes"),
    ("O=C(O)C[C@H](NC(=O)C1CCN(C(=O)Nc2ccccc2)CC1)C(=O)COc1c(F)c(F)cc(F)c1F", "yes"),
    ("O=C(O)C[C@H](NC(=O)C1CCN(C(=O)Oc2cccc(Cl)c2Cl)CC1)C(=O)COc1c(F)c(F)cc(F)c1F", "yes"),
    ("O=C(O)C[C@H](NC(=O)C1CCN(C(=O)c2nc3ccccc3s2)CC1)C(=O)COc1c(F)c(F)cc(F)c1F", "yes"),
    ("O=C(O)C[C@H](NC(=O)C1CCN(c2ncc3cc(F)ccc3n2)CC1)C(=O)COc1c(F)c(F)cc(F)c1F", "no"),
    ("CC1(C(=O)N[C@@H](CC(=O)O)C(=O)COc2c(F)c(F)cc(F)c2F)CCN(C(=O)C(=O)Nc2ccccc2C(C)(C)C)CC1", "no"),
    ("O=C(O)C[C@H](NC(=O)C1CCN(C(=O)c2nc3ccccc3[nH]2)CC1)C(=O)COc1c(F)c(F)cc(F)c1F", "yes"),
    ("O=C(O)C[C@H](NC(=O)CC1CN(C(=O)C2CCCC2)C1)C(=O)COc1c(F)c(F)cc(F)c1F", "yes"),
    ("O=C(O)C[C@H](NC(=O)C1CCN(C(=O)C(=O)NC2CCCC2)CC1)C(=O)COc1c(F)c(F)cc(F)c1F", "no"),
    ("O=C(O)C[C@H](NC(=O)[C@@H]1COCCN(C(=O)C(=O)Nc2ccccc2Cl)C1)C(=O)COc1c(F)c(F)cc(F)c1F", "yes"),
    ("CC(C)(C)c1ccccc1NC(=O)C(=O)N1CCC(F)(C(=O)N[C@@H](CC(=O)O)C(=O)COc2c(F)c(F)cc(F)c2F)CC1", "no"),
    ("CC(C)(C)c1ccccc1NC(=O)C(=O)N1CCCO[C@H](C(=O)N[C@@H](CC(=O)O)C(=O)COc2c(F)c(F)cc(F)c2F)C1", "no"),
]
